Where do the numbers come from? From the emibetuzumab library of Makowski et al. (2022).

B1: VH:VL chains; a variant is named by its letters at X, in order (parent)
chain 1: QVQLVQSGAEVKKPGASVKVSCKASGYTFTDYXMHWVRQAPGQGLEWMGXVNPNXXXTTYNQKFEGRVTMTTDTSTSTAYMELRSLRSDDTAVYYCARXNXLDXWGQGTTVTVSS
chain 2: DIQMTQSPSSLSASVGDRVTITCSVSSSVSSIYLHWYQQKPGKAPKLLIYSTSNLASGVPSRFSGSGSGTDFTLTISSLQPEDFATYYCQVYSGYPLTFGGGTKVEIK

Variants of: B1
Experiment: yeast display scFab, FACS + sequencing
Conditions: with MET
Some of the results follow. How many sequences the whole screen found active is unknown.
Measure: antigen binding call

{"Changes": "AAKEGALV", "antigen binding call": "no binding"}
{"Changes": "FRTGGSAD", "antigen binding call": "binds"}
{"Changes": "YTEGDDGD", "antigen binding call": "no binding"}
{"Changes": "YRRRGAAD", "antigen binding call": "binds"}
{"Changes": "DRGGDVSD", "antigen binding call": "no binding"}

Report antigen binding call for every entry below.
1. FKKGSSGD
2. AEERASAF
3. YRRGGAAF
4. VRGRDDGV
5. YKRGDDGD
6. YKRGDDLV
7. DTTKGDVA

binds
no binding
binds
no binding
binds
no binding
no binding

Report antigen binding call for every entry below.
1. DATGGDGS
2. DAARGDVV

["no binding", "no binding"]
